Molecular target: Vasoactive intestinal polypeptide receptor 2 (Homo sapiens) (UniProt P41587)
Sequence (whole entry): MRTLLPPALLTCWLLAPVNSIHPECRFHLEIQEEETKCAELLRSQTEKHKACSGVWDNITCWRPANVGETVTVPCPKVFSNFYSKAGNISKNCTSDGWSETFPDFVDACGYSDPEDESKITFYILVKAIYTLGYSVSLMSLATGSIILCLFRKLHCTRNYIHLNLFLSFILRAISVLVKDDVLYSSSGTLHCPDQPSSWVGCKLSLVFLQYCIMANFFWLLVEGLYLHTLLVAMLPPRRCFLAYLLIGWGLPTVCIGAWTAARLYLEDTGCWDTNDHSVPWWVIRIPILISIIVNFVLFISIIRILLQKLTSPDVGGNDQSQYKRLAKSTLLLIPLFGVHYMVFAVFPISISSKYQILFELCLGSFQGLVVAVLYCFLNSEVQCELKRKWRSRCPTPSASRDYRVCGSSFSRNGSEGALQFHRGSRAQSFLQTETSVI
Experiment: Antagonist activity at recombinant human N-terminal signal peptide/FLAG epitope-tagged VIPR2 expressed in HEK293 cells co-expressing CAMYEL assessed as inhibition of VIP-induced cAMP accumulation at 0.5 uM preincubated for 5 mins with luciferin, coelenterazine H followed by VIP addition measured after 5 mins by BRET assay relative to control
Format: functional, cell-based
reportedMetric: inhibition (%)
Express it in %; write the number only.

Here's what some known entries look like.
inputSmiles | inhibition [%]
O=C(NC[C@@H](O)C[C@@H](Cc1ccccc1)C(=O)N[C@H]1c2ccccc2C[C@H]1O)C1CC1 | 21
N#Cc1ccc(S(=O)(=O)NC[C@@H](O)C[C@@H](Cc2ccccc2)C(=O)N[C@H]2c3ccccc3C[C@H]2O)cc1 | 27.3

**Q:** # query: inhibition | item `CC(C)(C)c1ccc(C(=O)NC[C@@H](O)C[C@@H](Cc2ccccc2)C(=O)N[C@H]2c3ccccc3C[C@H]2O)cc1` | system: Vasoactive intestinal polypeptide receptor 2 (Homo sapiens) (UniProt P41587)
**A:** 10.7
